assay_method_text: inhibitors of CD8+ T cell-vesicle binding, pilot screen, LFA-1/ICAM-1 modulator project, MLPCN validation set, flow cytometry (AID 2523)
measurement_setup: 2C mouse CD8+ T cells, at 7 µM, stronger effect = lower value; measured here: CD8+/vesicle+ event percentage
The compounds listed here are annotated with their double positive events.
The figure you give is taken to be in %; do not add the unit.

Some compounds with recorded double positive events:
# compound, double positive events (%)
rows = [
    ("NCCCC(=O)O", 57.8),
    ("O=c1c2ccccc2nc2n1-c1ccccc1CCC2", 64.2),
    ("CN(C)CCN(Cc1cccs1)c1ccccn1", 52.7),
    ("O=C(O)CCSc1nc2ccccc2s1", 49.5),
    ("COc1ccccc1C1(CC(=O)N2CCCCC2)CCOC(C(C)C)C1 (centres undefined)", 60.3),
]

Below: the item to evaluate.
Need double positive events, item `CCOc1ccc(C(=O)/C=C/c2cc(OC)c(OC)c(OC)c2)cc1`
54.7

Data origin, for the record: PubChem BioAssay
